Taken from patent US8734580B2.

assay-name: Ozone gas resistance of the printed images
Assay type: physicochemical
condition-parameters: ink with 6 parts dye, printed on glossy photo paper; 40 ppm ozone, 60% RH, 24° C.; grade by color difference ΔE

[
  {
    "compound": "O=C(O)CCCS(=O)(=O)c1cc(S(=O)(=O)O)c(Nc2cc(S(=O)(=O)O)c3[nH]c(=O)c(C(=O)c4cccc(S(=O)(=O)O)c4)c4c3c2C(=O)c2ccccc2-4)c(S(=O)(=O)O)c1 [Dp2]",
    "Ozone resistance of ink printed images": "∘ (ΔE<10)"
  },
  {
    "compound": "O=C(c1cccc(S(=O)(=O)O)c1)c1c2c3c(c(Nc4c(S(=O)(=O)O)cc(S(=O)(=O)CCC5C(=O)c6ccccc6C5=O)cc4S(=O)(=O)O)cc(S(=O)(=O)O)c3[nH]c1=O)C(=O)c1ccccc1-2 [Dp8]",
    "Ozone resistance of ink printed images": "∘ (ΔE<10)"
  }
]

---

assay-name: Ozone gas resistance of the printed images
Assay type: physicochemical
condition-parameters: ink with 6 parts dye, printed on glossy photo paper; 40 ppm ozone, 60% RH, 24° C.; grade by color difference ΔE

[
  {
    "compound": "O=C(c1cccc(S(=O)(=O)O)c1)c1c2c3c(c(Nc4c(S(=O)(=O)O)cc(S(=O)(=O)CCC5C(=O)c6ccc(S(=O)(=O)O)cc6C5=O)cc4S(=O)(=O)O)cc(S(=O)(=O)O)c3[nH]c1=O)C(=O)c1ccccc1-2 (centres unmarked)",
    "Ozone resistance of ink printed images": "∘ (ΔE<10)"
  },
  {
    "compound": "O=C(CCCS(=O)(=O)c1cc(S(=O)(=O)O)c(Nc2cc(S(=O)(=O)O)c3[nH]c(=O)c(C(=O)c4cccc(S(=O)(=O)O)c4)c4c3c2C(=O)c2ccccc2-4)c(S(=O)(=O)O)c1)c1cccc(S(=O)(=O)O)c1",
    "Ozone resistance of ink printed images": "∘ (ΔE<10)"
  }
]
